# System: TIL 2359
# experiment-notes: IFN-γ release by TIL 2359 co-cultured with peptide-pulsed HEK293 cells expressing HLA-A*0205
# Format: cell-based, human
# recorded-conditions: peptide pulsed on HEK293 cells stably expressing HLA-A*0205, co-culture with TIL 2359
Task for the reader: assign each of the following sequences its reported Co-culture result [IFN-γ].
Answers are plain numbers, in pg/mL.

As a guide, the following entries are already answered.
{"sequence-string": "LTIKIQRSNGL [mutated KIF2C peptide, residues 15-25]", "target-system": "TIL 2359", "property-name": "Co-culture result [IFN-γ]", "value-measured": 31.5}
{"sequence-string": "LQARLFPGLTI [mutated KIF2C peptide, residues 7-17]", "target-system": "TIL 2359", "property-name": "Co-culture result [IFN-γ]", "value-measured": 27}
{"sequence-string": "LQARLFPGLT [mutated KIF2C peptide, residues 7-16]", "target-system": "TIL 2359", "property-name": "Co-culture result [IFN-γ]", "value-measured": 24}
{"sequence-string": "RLFPGLTIKI", "target-system": "TIL 2359", "property-name": "Co-culture result [IFN-γ]", "value-measured": 10690}

Data point: RLFPGLTI [mutated KIF2C peptide, residues 10-17] ; Co-culture result [IFN-γ] = 121.5
